B1: tRNA (parent)
chain: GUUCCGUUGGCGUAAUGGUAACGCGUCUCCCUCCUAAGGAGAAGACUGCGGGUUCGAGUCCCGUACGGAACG

- Variants of: B1
- Run description: yeast fitness relative to wild type (ratio to wild type); higher = fitter; tRNA-Arg(CCU), competitive growth, 37 C, YPD
This sample holds only a part of the variants without activity.
Let's look at some variants and their measured yeast fitness.
# print the numeric value only

{"columns": ["Sequence content", "yeast fitness"],
 "data": [
  ["GUUCCGUUGGCGUAAUGGUAACGCGUCUCCCUCCUAAGGAGAAGACUGCGGGUUCGAAUUCCGUACGGAGCG [G58A C60U A70G]", 0.702]
]}

The record that follows has no yeast fitness shown yet.
IN: Using the record for GUUCCGUUGGCGUAGUGAUAACGCGUCUCCCUCCUAAGGAGAAGAUUGCGGGUUCGAGUCCCGUACGGAACG [A15G G18A C46U] , report its yeast fitness.
OUT: 0.645
